- system: recombinant human NQO2 (Homo sapiens)
- experimentalProtocol: NQO2 enzyme inhibition assay (DCPIP substrate, NRH or EPR co-substrate)
- Assay type: biochemical
- conditions: DCPIP substrate, NRH co-substrate; read-out: IC50 for inhibition of NQO2
experimentalEndpoint: IC50 (nM)

COc1cc(OC)cc(-c2nc3ccc(N)cc3s2)c1 [Compound 11]: 863
COc1cc(-c2nc3ccc(C(F)(F)F)cc3s2)cc(OC)c1OC [Compound 42]: 18400

[A] COc1ccc(OC)c(-c2nc3ccc(OC)cc3s2)c1 [Compound 24]
[B] COc1ccc2nc(-c3ccc(OC)c(OC)c3)sc2c1 [Compound 32]
Exam item: For the two items A and B , which reports the higher IC50 value? Your choice should be expressed through its label.
Marked response: B
(B: 1270 nM, A: 846 nM)

---

- system: recombinant human NQO2 (Homo sapiens, UniProt P16083)
- Sequence (P16083 whole entry): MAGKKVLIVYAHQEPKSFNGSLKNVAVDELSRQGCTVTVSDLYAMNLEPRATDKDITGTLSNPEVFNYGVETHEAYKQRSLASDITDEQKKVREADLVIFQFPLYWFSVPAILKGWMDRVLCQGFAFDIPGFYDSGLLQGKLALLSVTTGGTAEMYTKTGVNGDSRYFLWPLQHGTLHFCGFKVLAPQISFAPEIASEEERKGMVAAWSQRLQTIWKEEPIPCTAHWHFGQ
- experimentalProtocol: NQO2 enzyme inhibition assay (DCPIP substrate, NRH or EPR co-substrate)
- Assay type: biochemical
- conditions: inhibition of NQO2; DCPIP 40 µM, NRH or EPR 200 µM, phosphate buffer pH 7.4, 37 °C, triplicate; read-out: IC50 (µM) ± SD
experimentalEndpoint: IC50 (µM)

Some entries whose results are on file:
COc1cc(OC)cc(-c2nc3ccc([N+](=O)[O-])cc3s2)c1: 93.4
COc1cc(OC)cc(-c2nc3ccc(NC(C)=O)cc3s2)c1: 0.605
COc1cc(-c2nc3ccc(N)cc3s2)cc(OC)c1OC: 0.079
COc1ccc(-c2nc3ccc(Br)cc3s2)c(OC)c1: 56.9
COc1cc(-c2nc3ccc(Br)cc3s2)cc(OC)c1OC: 0.193

[A] COc1cc(-c2nc3ccc(C#N)cc3s2)cc(OC)c1OC
[B] COc1cc(OC)cc(-c2nc3ccc(Cl)cc3s2)c1
[C] COc1ccc(OC)c(-c2nc3ccc(Br)cc3s2)c1
[D] COc1cccc(-c2nc3ccc(F)cc3s2)c1
Exam item: Ascending by IC50, please. Give the labels in the order specified.
Marked response: D, C, A, B
(D: 0.908 µM, C: 6.71 µM, A: 13.3 µM, B: 82.9 µM)

---

- system: recombinant human NQO2 (Homo sapiens)
- experimentalProtocol: NQO2 enzyme inhibition assay (DCPIP substrate, NRH or EPR co-substrate)
- Assay type: biochemical
- conditions: inhibition of NQO2; DCPIP 40 µM, NRH or EPR 200 µM, phosphate buffer pH 7.4, 37 °C, triplicate; read-out: IC50 (µM) ± SD
experimentalEndpoint: IC50 (µM)

Consider the worked cases shown below.
COc1cc(-c2nc3ccc(Cl)cc3s2)cc(OC)c1OC: 0.773
COc1cc(OC)cc(-c2nc3ccc(N)cc3s2)c1: 0.863

[P] COc1ccc(-c2nc3ccc([N+](=O)[O-])cc3s2)cc1OC
[Q] COc1ccc(-c2nc3ccc(Cl)cc3s2)cc1OC
Exam item: Please choose the item with the lower IC50 value from this pair: P and Q Lab log: write the label of the selected item as the result.
Marked response: P
